# tested-target: TGFb1 (Homo sapiens, UniProt P01137)
# Construct: purchased Abcam
# Sequence (P01137 279-390 limits assumed): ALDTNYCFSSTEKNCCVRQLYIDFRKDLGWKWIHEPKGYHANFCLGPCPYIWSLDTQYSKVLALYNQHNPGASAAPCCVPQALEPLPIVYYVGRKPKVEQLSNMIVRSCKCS
# experiment-notes: ELISA binding of ligand to immobilized CLPTM1 peptide fragments
# test-parameters: biotinylated peptide immobilized at 1 μM; ligand 100 ng/ml; OD 450-620 measured
measured-endpoint: ELISA OD450 TGFb1
API note: the answer field is a bare number with no unit suffix.

{"columns": ["seq", "tested-target", "ELISA OD450 TGFb1"],
 "data": [
  ["KALYRRLATVHMSRMINKYKG (listed as Homo sapiens) [SEQ ID NO: 17]", "TGFb1 (Homo sapiens, UniProt P01137)", 0.026],
  ["VSGDYYPIIYFNDYWNLQKDYYPINESLASLPLRVSFC (listed as Homo sapiens) [SEQ ID NO: 38]", "TGFb1 (Homo sapiens, UniProt P01137)", 0.032],
  ["LDQYVKFDAVSGDYYPIIYFG (listed as Homo sapiens) [SEQ ID NO: 21]", "TGFb1 (Homo sapiens, UniProt P01137)", 0.022]
]}

Prompt: What does the data say about its ELISA OD450 TGFb1? Entry: SGDYYPIIYFNDYWNLQKDYYPINESLA (listed as Homo sapiens) [SEQ ID NO: 40]
Response: 0.177

Prompt: Please do the same for LWRWQLYAAQSTKSPWNFLGDELYEQSDEEQDSVKVALLETNP (listed as Homo sapiens) [SEQ ID NO: 33] as well.
Response: 0.013

Prompt: Please do the same for PLDQYVKFDAVSGDYYPIIYFNDYWNLQKDYYPINESLA (listed as Homo sapiens) [SEQ ID NO: 39] as well.
Response: 2.102

Prompt: Please do the same for NAWQVIKGVLFRIFIIWAISSWFRRGPAPQDQAGPGGA (listed as Homo sapiens) [SEQ ID NO: 35] as well.
Response: 1.536

Prompt: Please do the same for GDYYPIIYFNDYWNLQKDYYG (listed as Homo sapiens) [SEQ ID NO: 28] as well.
Response: 0.152

###

# Tested on: TGF-β proteins
# experiment-notes: ELISA of Example 1, binding
# test-parameters: result in words
measured-endpoint: binding to TGF-β proteins

# count of solved cases: 6
{"columns": ["seq", "tested-target", "measured-endpoint", "reported-value"],
 "data": [
  ["YPINESLASLPLRVSFCPLSG (listed as Homo sapiens) [SEQ ID NO: 27]", "TGF-β proteins", "binding to TGF-β proteins", "binding"],
  ["SGDYYPIIYFNDYWNLQKDYYPINESLASLPLRVSFCPLS (listed as Homo sapiens) [SEQ ID NO: 32]", "TGF-β proteins", "binding to TGF-β proteins", "favourable binding"],
  ["GDYYPIIYFNDYWNLQKDYYG (listed as Homo sapiens) [SEQ ID NO: 28]", "TGF-β proteins", "binding to TGF-β proteins", "binding"],
  ["LDQYVKFDAVSGDYYPIIYFG (listed as Homo sapiens) [SEQ ID NO: 21]", "TGF-β proteins", "binding to TGF-β proteins", "binding"],
  ["KALYRRLATVHMSRMINKYKG (listed as Homo sapiens) [SEQ ID NO: 17]", "TGF-β proteins", "binding to TGF-β proteins", "binding"],
  ["DTLMNLHVYISEHEHFTDFNATSALFWEQHDLVYGDWTSG (listed as Homo sapiens) [SEQ ID NO: 36]", "TGF-β proteins", "binding to TGF-β proteins", "binds"]
]}

Prompt: What does the data say about its binding to TGF-β proteins? Entry: PLDQYVKFDAVSGDYYPIIYFNDYWNLQKDYYPINESLA (listed as Homo sapiens) [SEQ ID NO: 39]
Response: favourable binding

Prompt: Please do the same for VSGDYYPIIYFNDYWNLQKDYYPINESLASLPLRVSFC (listed as Homo sapiens) [SEQ ID NO: 38] as well.
Response: favourable binding

Prompt: Please do the same for SGDYYPIIYFNDYWNLQKDYYPINESLA (listed as Homo sapiens) [SEQ ID NO: 40] as well.
Response: favourable binding

###

# tested-target: GDF15 (Homo sapiens)
# Construct: purchased Abcam
# Sequence (Q99988 195-308): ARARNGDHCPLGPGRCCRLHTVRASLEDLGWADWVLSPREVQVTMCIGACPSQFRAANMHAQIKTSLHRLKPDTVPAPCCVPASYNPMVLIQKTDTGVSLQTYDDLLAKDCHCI
# experiment-notes: ELISA binding of ligand to immobilized CLPTM1 peptide fragments
# test-parameters: biotinylated peptide immobilized at 1 μM; ligand 100 ng/ml; OD 450-620 measured
Rule for this label: criterion met means ELISA OD450 GDF15 is less than 0.06; criterion not met means ELISA OD450 GDF15 is at least 0.06.

Record excerpt, results attached:
{"columns": ["seq", "assigned-class"],
 "data": [
  ["YPINESLASLPLRVSFCPLSG (listed as Homo sapiens) [SEQ ID NO: 27]", "criterion not met"],
  ["ARSAVVAAGGGSSGQVTSNGSIGRDPPAETQPQNPPAQPA (listed as Homo sapiens) [SEQ ID NO: 34]", "criterion not met"],
  ["LDQYVKFDAVSGDYYPIIYFG (listed as Homo sapiens) [SEQ ID NO: 21]", "criterion met"],
  ["GDYYPIIYFNDYWNLQKDYYG (listed as Homo sapiens) [SEQ ID NO: 28]", "criterion not met"],
  ["TKSGFHPDPRQKALYRRLATVHMSRMINKYKRRRFQKTKN (listed as Homo sapiens) [SEQ ID NO: 37]", "criterion met"]
]}

Prompt: # strict comparison: is reported ELISA OD450 GDF15 < 0.06? input = NAWQVIKGVLFRIFIIWAISSWFRRGPAPQDQAGPGGA (listed as Homo sapiens) [SEQ ID NO: 35]
Response: criterion not met

Prompt: Please do the same for LWRWQLYAAQSTKSPWNFLGDELYEQSDEEQDSVKVALLETNP (listed as Homo sapiens) [SEQ ID NO: 33] as well.
Response: criterion met

###

# tested-target: TGFb2 (Homo sapiens, UniProt P61812)
# Construct: purchased Abcam
# Sequence (P61812 303-414 limits assumed): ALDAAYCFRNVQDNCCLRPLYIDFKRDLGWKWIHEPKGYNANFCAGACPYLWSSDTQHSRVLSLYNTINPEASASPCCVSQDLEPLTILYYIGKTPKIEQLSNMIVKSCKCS
# experiment-notes: ELISA binding of ligand to immobilized CLPTM1 peptide fragments
# test-parameters: biotinylated peptide immobilized at 1 μM; ligand 100 ng/ml; OD 450-620 measured
measured-endpoint: ELISA OD450 TGFb2

{"columns": ["seq", "tested-target", "ELISA OD450 TGFb2"],
 "data": [
  ["PLDQYVKFDAVSGDYYPIIYFNDYWNLQKDYYPINESLA (listed as Homo sapiens) [SEQ ID NO: 39]", "TGFb2 (Homo sapiens, UniProt P61812)", 1.630],
  ["ARSAVVAAGGGSSGQVTSNGSIGRDPPAETQPQNPPAQPA (listed as Homo sapiens) [SEQ ID NO: 34]", "TGFb2 (Homo sapiens, UniProt P61812)", 0.025]
]}

Kindly consider the entry below.
Prompt: Identify the measured ELISA OD450 TGFb2 of NAWQVIKGVLFRIFIIWAISSWFRRGPAPQDQAGPGGA (listed as Homo sapiens) [SEQ ID NO: 35] for TGFb2 (Homo sapiens, UniProt P61812).
Response: 0.164

###

This section presents substances with their documented ELISA OD450 TGFb3 values.
# tested-target: TGFb3 (Homo sapiens)
# Construct: purchased Abcam
# Sequence (P10600 301-412 limits assumed): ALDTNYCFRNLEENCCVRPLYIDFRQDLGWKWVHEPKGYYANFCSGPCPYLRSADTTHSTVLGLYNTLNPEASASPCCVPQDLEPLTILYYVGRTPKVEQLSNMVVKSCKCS
# experiment-notes: ELISA binding of ligand to immobilized CLPTM1 peptide fragments
# test-parameters: biotinylated peptide immobilized at 1 μM; ligand 100 ng/ml; OD 450-620 measured
API note: the answer field is a bare number with no unit suffix.

{"columns": ["substance", "tested-target", "ELISA OD450 TGFb3"],
 "data": [
  ["VSGDYYPIIYFNDYWNLQKDYYPINESLASLPLRVSFC (listed as Homo sapiens) [SEQ ID NO: 38]", "TGFb3 (Homo sapiens)", 0.029],
  ["DTLMNLHVYISEHEHFTDFNATSALFWEQHDLVYGDWTSG (listed as Homo sapiens) [SEQ ID NO: 36]", "TGFb3 (Homo sapiens)", 0.019]
]}

Prompt: What does the data say about its ELISA OD450 TGFb3? Entry: LDQYVKFDAVSGDYYPIIYFG (listed as Homo sapiens) [SEQ ID NO: 21]
Response: 0.020

Prompt: Please do the same for LWRWQLYAAQSTKSPWNFLGDELYEQSDEEQDSVKVALLETNP (listed as Homo sapiens) [SEQ ID NO: 33] as well.
Response: 0.011

Prompt: Please do the same for GDYYPIIYFNDYWNLQKDYYG (listed as Homo sapiens) [SEQ ID NO: 28] as well.
Response: 0.065

Prompt: Please do the same for KALYRRLATVHMSRMINKYKG (listed as Homo sapiens) [SEQ ID NO: 17] as well.
Response: 0.0060

Prompt: Please do the same for NAWQVIKGVLFRIFIIWAISSWFRRGPAPQDQAGPGGA (listed as Homo sapiens) [SEQ ID NO: 35] as well.
Response: 0.151

Prompt: Please do the same for 38 (VSGDYYPIIYFNDYWNLQKDYYPINESLASLPLRVSFC; listed as Homo sapiens) [compound 38] as well.
Response: 0.091

Prompt: Please do the same for TKSGFHPDPRQKALYRRLATVHMSRMINKYKRRRFQKTKN (listed as Homo sapiens) [SEQ ID NO: 37] as well.
Response: 0.041

Just for reference, patent US11406665B2 is where these values come from.
